Just for reference, patent US5171835A is where these values come from.

Recorded % inhibition of LH response values for a group of substances are listed next.
test system: perfused rat pituitary cell system (LH response to LH-RH); test: LH-RH inhibiting activity in superfused rat pituitary cell system; assay type: cell-based; conditions: antagonist to LH-RH ratio 1:1; 30 min
ASSAY METRIC: % inhibition of LH response (%)

{"SUBSTANCE": "Ac-D-Nal(2)-D-Phe(4Cl)-D-Pal(3)-Ser-Tyr-D-Lys[A2 pr(Ac)2 ]-Leu-Arg-Pro-D-Ala-NH2 [Peptide 8]", "UNITS LABEL": "%", "TEST VALUE": 39}
{"SUBSTANCE": "Ac-D-Nal(2)-D-Phe(4Cl)-D-Pal(3)-Ser-Tyr-D-Lys[DL-A2 bu(LAU)2 ]-Leu-Arg-Pro-D-Ala-NH2 [Peptide 19]", "UNITS LABEL": "%", "TEST VALUE": 20}
{"SUBSTANCE": "Ac-D-Nal(2)-D-Phe(4Cl)-D-Pal(3)-Ser-Tyr-D-Lys[DL-A2 bu(For)2 ]-Leu-Arg-Pro-D-Ala-NH2 [Peptide 15]", "UNITS LABEL": "%", "TEST VALUE": 41}
{"SUBSTANCE": "Ac-D-Nal(2)-D-Phe(4Cl)-D-Pal(3)-Ser-Arg-D-Lys[A2 pr(Ac)2 ]-Leu-Arg-Pro-D-Ala-NH2 [Peptide 2]", "UNITS LABEL": "%", "TEST VALUE": 27}
{"SUBSTANCE": "Ac-D-Nal(2)-D-Phe(4Cl)-D-Pal(3)-Ser-Tyr-D-Lys[A2 pr(Car)2 ]-Leu-Arg-Pro-D-Ala-NH2 [Peptide 7]", "UNITS LABEL": "%", "TEST VALUE": 51}
{"SUBSTANCE": "Ac-D-Nal(2)-D-Phe(4Cl)-D-Pal(3)-Ser-Tyr-D-Lys[DL-A2 bu(Car)2 ]-Leu-Arg-Pro-D-Ala-NH2 [Peptide 16]", "UNITS LABEL": "%", "TEST VALUE": 33}

###

test system: membrane receptors of human breast cancer cells; assay: Receptor binding, human breast cancer cell membranes (125I-[D-Trp6]LHRH as labelled ligand); details: 125I-[D-Trp]6 LHRH labelled ligand; NB = no binding
hey, just use fulfilled if measured Affinity Constant Ka 1 is less than 3 nM⁻¹, otherwise not fulfilled

{"SUBSTANCE": "Ac-D-Nal(2)-D-Phe(4Cl)-D-Pal(3)-Ser-Tyr-D-Lys[DL-A2 bu(LAU)2 ]-Leu-Arg-Pro-D-Ala-NH2 [Peptide 19]", "CLASS": "fulfilled"}
{"SUBSTANCE": "Ac-D-Nal(2)-D-Phe(4Cl)-D-Trp-Ser-Arg-D-Lys[A2 pr(Car)2 ]-Leu-Arg-Pro-D-Ala-NH2 [Peptide 22]", "CLASS": "not fulfilled"}
{"SUBSTANCE": "Ac-D-Nal(2)-D-Phe(4Cl)-D-Pal(3)-Ser-Tyr-D-Lys[DL-A2 bu(PRL)2 ]-Leu-Arg-Pro-D-Ala-NH2 [Peptide 18]", "CLASS": "not fulfilled"}
{"SUBSTANCE": "Ac-D-Nal(2)-D-Phe(4Cl)-D-Pal(3)-Ser-Tyr-D-Lys[A2 pr(Ac)2 ]-Leu-Arg-Pro-D-Ala-NH2 [Peptide 8]", "CLASS": "fulfilled"}
{"SUBSTANCE": "Ac-D-Nal(2)-D-Phe(4Cl)-D-Pal(3)-Ser-Tyr-D-Lys[A2 pr(CHC)2 ]-Leu-Arg-Pro-D-Ala-NH2 [Peptide 12]", "CLASS": "fulfilled"}
{"SUBSTANCE": "Ac-D-Nal(2)-D-Phe(4Cl)-D-Pal(3)-Ser-Arg-D-Lys[A2 pr(Ac)2 ]-Leu-Arg-Pro-D-Ala-NH2 [Peptide 2]", "CLASS": "not fulfilled"}
{"SUBSTANCE": "Ac-D-Nal(2)-D-Phe(4Cl)-D-Pal(3)-Ser-Tyr-D-Lys[A2 pr]-Leu-Arg-Pro-D-Ala-NH2 [Peptide 25]", "CLASS": "not fulfilled"}
{"SUBSTANCE": "Ac-D-Nal(2)-D-Phe(4Cl)-D-Pal(3)-Ser-Tyr-D-Lys[A2 pr(EtCar)2 ]-Leu-Arg-Pro-D-Ala-NH2 [Peptide 9]", "CLASS": "not fulfilled"}

###

System: perfused rat pituitary cell system (LH response to LH-RH)
Assay: LH-RH inhibiting activity in superfused rat pituitary cell system
Type: cell-based
Settings: antagonist to LH-RH ratio 1:1; 30 min
Description: Immediately after that, a mixture containing the same concentration of peptide and 3 nM LHRH is administered for 3 min. This was followed by four consecutive infusions of 3 nM LHRH for 3 min (1 ml perfusate) at 30 min intervals (30, 60, 90, 120 min). LH content of the 1 ml fractions collected is determined by radioimmunoassay (RIA).
Parameter: % inhibition of LH response. Scope: all listed entries.

{"SUBSTANCE": "Ac-D-Nal(2)-D-Phe(4Cl)-D-Pal(3)-Ser-Arg-D-Lys[A2 pr(Car)2 ]-Leu-Arg-Pro-D-Ala-NH2 [Peptide 1]", "TESTED SYSTEM": "perfused rat pituitary cell system (LH response to LH-RH)", "% inhibition of LH response, %": 46}
{"SUBSTANCE": "Ac-D-Nal(2)-D-Phe(4Cl)-D-Trp-Ser-Arg-D-Lys[A2 pr(For)2 ]-Leu-Arg-Pro-D-Ala-NH2 [Peptide 24]", "TESTED SYSTEM": "perfused rat pituitary cell system (LH response to LH-RH)", "% inhibition of LH response, %": 11}
{"SUBSTANCE": "Ac-D-Nal(2)-D-Phe(4Cl)-D-Pal(3)-Ser-Tyr-D-Lys[A2 pr]-Leu-Arg-Pro-D-Ala-NH2 [Peptide 25]", "TESTED SYSTEM": "perfused rat pituitary cell system (LH response to LH-RH)", "% inhibition of LH response, %": 49}
{"SUBSTANCE": "Ac-D-Nal(2)-D-Phe(4Cl)-D-Pal(3)-Ser-Tyr-D-Lys[DL-A2 bu]-Leu-Arg-Pro-D-Ala-NH2 [Peptide 26]", "TESTED SYSTEM": "perfused rat pituitary cell system (LH response to LH-RH)", "% inhibition of LH response, %": 52}

###

test system: membrane receptors of human breast cancer cells; assay: Receptor binding, human breast cancer cell membranes (125I-[D-Trp6]LHRH as labelled ligand); details: 125I-[D-Trp]6 LHRH labelled ligand; NB = no binding
Returns: string. Value is fulfilled if measured Affinity Constant Ka 1 is below 7 nM⁻¹, and not fulfilled if it is greater than or equal to it.

{"SUBSTANCE": "Ac-D-Nal(2)-D-Phe(4Cl)-D-Pal(3)-Ser-Arg-D-Lys[A2 pr(EtCar)2 ]-Leu-Arg-Pro-D-Ala-NH2 [Peptide 4]", "CLASS": "not fulfilled"}
{"SUBSTANCE": "Ac-D-Nal(2)-D-Phe(4Cl)-D-Pal(3)-Ser-Tyr-D-Lys[A2 pr(For)2 ]-Leu-Arg-Pro-D-Ala-NH2 [Peptide 10]", "CLASS": "not fulfilled"}
{"SUBSTANCE": "Ac-D-Nal(2)-D-Phe(4Cl)-D-Pal(3)-Ser-Tyr-D-Lys[A2 pr(Car)2 ]-Leu-Arg-Pro-D-Ala-NH2 [Peptide 7]", "CLASS": "fulfilled"}
{"SUBSTANCE": "Ac-D-Nal(2)-D-Phe(4Cl)-D-Pal(3)-Ser-Tyr-D-Lys[DL-A2 bu(Ac)2 ]-Leu-Arg-Pro-D-Ala-NH2 [Peptide 14]", "CLASS": "fulfilled"}

###

system: membrane receptors of human breast cancer cells; assay: Receptor binding, human breast cancer cell membranes (125I-[D-Trp6]LHRH as labelled ligand); settings: 125I-[D-Trp]6 LHRH labelled ligand
ASSAY METRIC: Affinity Constant Ka 2

{"SUBSTANCE": "Ac-D-Nal(2)-D-Phe(4Cl)-D-Pal(3)-Ser-Tyr-D-Lys[A2 pr]-Leu-Arg-Pro-D-Ala-NH2 [Peptide 25]", "TESTED SYSTEM": "membrane receptors of human breast cancer cells", "TEST VALUE": "1.29 µM⁻¹"}
{"SUBSTANCE": "Ac-D-Nal(2)-D-Phe(4Cl)-D-Pal(3)-Ser-Tyr-D-Lys[DL-A2 bu(LAU)2 ]-Leu-Arg-Pro-D-Ala-NH2 [Peptide 19]", "TESTED SYSTEM": "membrane receptors of human breast cancer cells", "TEST VALUE": "0 µM⁻¹"}
{"SUBSTANCE": "Ac-D-Nal(2)-D-Phe(4Cl)-D-Pal(3)-Ser-Tyr-D-Lys[A2 pr(CHC)2 ]-Leu-Arg-Pro-D-Ala-NH2 [Peptide 12]", "TESTED SYSTEM": "membrane receptors of human breast cancer cells", "TEST VALUE": "3.57 µM⁻¹"}
